molecular target: T1, human PD-L1 (human, UniProt Q9NZQ7 19-239, limits assumed); experiment: cell binding assay, inhibition of Hu PD-L1/PD-1 binding
T1 construct: also called Hu PD-L1; hPD-L1
T1 sequence (Q9NZQ7 19-239 limits assumed): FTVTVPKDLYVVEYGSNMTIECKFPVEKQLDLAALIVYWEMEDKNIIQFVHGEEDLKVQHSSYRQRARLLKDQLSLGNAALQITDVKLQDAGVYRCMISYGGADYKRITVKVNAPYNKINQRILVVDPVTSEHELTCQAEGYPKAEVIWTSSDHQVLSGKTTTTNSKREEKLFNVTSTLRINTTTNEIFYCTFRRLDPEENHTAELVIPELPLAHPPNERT
Positions of bridges follow the written chain, without caps; N, C: chain ends. Non-standard residues stand in square brackets, D forms with d. Bip = N[C@@H](Cc1ccc(-c2ccccc2)cc1)C(=O)O; Phe(4-Br) = N[C@@H](Cc1ccc(Br)cc1)C(=O)O; 1Nal = N[C@@H](Cc1cccc2ccccc12)C(=O)O; 3Thi = N[C@@H](Cc1ccsc1)C(=O)O; NMeNle = CCCC[C@H](NC)C(=O)O; NMeA = CN[C@@H](C)C(=O)O; Sar = CNCC(=O)O
assay.endpoint: IC50 (nM)
Please state the figure in nM; there is no need to write the unit.

Q. Item {CH2CO}-[1Nal][NMeA]NPHL[Sar]WSW[NMeNle][NMeNle]RCG-NH2 (thioether N-14; SMILES CCCC[C@H]1C(=O)N(C)[C@@H](CCCC)C(=O)N[C@@H](CCCNC(=N)N)C(=O)N[C@H](C(=O)NCC(N)=O)CSCC(=O)N[C@@H](Cc2cccc3ccccc23)C(=O)N(C)[C@@H](C)C(=O)N[C@@H](CC(N)=O)C(=O)N2CCC[C@H]2C(=O)N[C@@H](Cc2c[nH]cn2)C(=O)N[C@@H](CC(C)C)C(=O)N(C)CC(=O)N[C@@H](Cc2c[nH]c3ccccc23)C(=O)N[C@@H](CO)C(=O)N[C@@H](Cc2c[nH]c3ccccc23)C(=O)N1C, macrocyclic peptide, Formula I series; also called Compound 27) [Compound No. 27] : provide IC50
A. 28

Q. Item {CH2CO}-[Phe(4-Br)][NMeA]NPHL[Sar]WSW[NMeNle][NMeNle]RCG-NH2 (thioether N-14; SMILES CCCC[C@H]1C(=O)N(C)[C@@H](CCCC)C(=O)N[C@@H](CCCNC(=N)N)C(=O)N[C@H](C(=O)NCC(N)=O)CSCC(=O)N[C@@H](Cc2ccc(Br)cc2)C(=O)N(C)[C@@H](C)C(=O)N[C@@H](CC(N)=O)C(=O)N2CCC[C@H]2C(=O)N[C@@H](Cc2c[nH]cn2)C(=O)N[C@@H](CC(C)C)C(=O)N(C)CC(=O)N[C@@H](Cc2c[nH]c3ccccc23)C(=O)N[C@@H](CO)C(=O)N[C@@H](Cc2c[nH]c3ccccc23)C(=O)N1C, macrocyclic peptide, Formula I series; also called Compound 34) [Compound No. 34] : provide IC50
A. 37

Q. Item {CH2CO}-[Bip][NMeA]NPHL[Sar]WSW[NMeNle][NMeNle]RCG-NH2 (thioether N-14; SMILES CCCC[C@H]1C(=O)N(C)[C@@H](CCCC)C(=O)N[C@@H](CCCNC(=N)N)C(=O)N[C@H](C(=O)NCC(N)=O)CSCC(=O)N[C@@H](Cc2ccc(-c3ccccc3)cc2)C(=O)N(C)[C@@H](C)C(=O)N[C@@H](CC(N)=O)C(=O)N2CCC[C@H]2C(=O)N[C@@H](Cc2c[nH]cn2)C(=O)N[C@@H](CC(C)C)C(=O)N(C)CC(=O)N[C@@H](Cc2c[nH]c3ccccc23)C(=O)N[C@@H](CO)C(=O)N[C@@H](Cc2c[nH]c3ccccc23)C(=O)N1C, macrocyclic peptide, Formula I series; also called Compound 28) [Compound No. 28] : provide IC50
A. 82

Okay, next one:
Q. Item {CH2CO}-[3Thi][NMeA]NPHL[Sar]WSW[NMeNle][NMeNle]RCG-NH2 (thioether N-14; SMILES CCCC[C@H]1C(=O)N(C)[C@@H](CCCC)C(=O)N[C@@H](CCCNC(=N)N)C(=O)N[C@H](C(=O)NCC(N)=O)CSCC(=O)N[C@@H](Cc2ccsc2)C(=O)N(C)[C@@H](C)C(=O)N[C@@H](CC(N)=O)C(=O)N2CCC[C@H]2C(=O)N[C@@H](Cc2c[nH]cn2)C(=O)N[C@@H](CC(C)C)C(=O)N(C)CC(=O)N[C@@H](Cc2c[nH]c3ccccc23)C(=O)N[C@@H](CO)C(=O)N[C@@H](Cc2c[nH]c3ccccc23)C(=O)N1C, macrocyclic peptide, Formula I series; also called Compound 40) [Compound No. 40] : provide IC50
A. 20

Entry source: patent US20140294898A1
